Target: T1, human LAIR1 extracellular domain (ECD) protein with 6 HIS tag at the C-terminus (human, UniProt Q6GTX8 22-165)
T1 construct: Produced recombinantly in HEK293 cells; the whole entry is named here; also called LAIR1 ECD; LAIR1-ECD
T1 chain: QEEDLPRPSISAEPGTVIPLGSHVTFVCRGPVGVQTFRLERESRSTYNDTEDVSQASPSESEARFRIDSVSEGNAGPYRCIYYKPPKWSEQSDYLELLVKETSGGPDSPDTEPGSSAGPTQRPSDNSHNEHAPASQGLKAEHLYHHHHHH
Test: ELISA, LAIR1 ECD coated
QUANTITY_MEASURED: EC50 (read off the curve)

BINDER	EC50 (read off the curve)
LA-95 (antibody, V domains shown, Rabbit monoclonal IgG; also called mAb LA-95) VH: EQSLKESGGRLVTPGGSLTLTCTASGFDINNYNIQWVRQAPGKGLEWIGFISPAGNEYSATWAKGRFTIYKTSSTTVELKMTSLTASDTATYFCARHWDSWGPGTLVTISS VL: ELVMTQTESPVSAAVGGTVTISCQSSQSVYSNRLSWFQQKPGQPPKELVYWTSTLQSGVPSRFSGSGSGTQFTLTISDLECDDAATYYCLGGYSGNIYVFGGGTEVEIK	~7 ng/mL
LA-94 (antibody, V domains shown, Rabbit monoclonal IgG; Called an agonist antibody; also called mAb LA-94; agonist Ab LA-94) VH: EQSLEESEGRLVTPGTPLTLTCTASGFSLSGYHMSWVRQAPGKGLEYIGYISERGTSYYANWAKGRFTVSKSSSSTVVLSIISPTAEDTATYFCARYGGGDSAFILWGPGTLVTISS VL: ELVMTQTPASVSGPVGGTVTIKCQASHNIDNSLAWYQQKPGQPPKLLIYKASTLASGVSSRFKGSGSGTEYTLTISDLECADAATYFCQGTIGLNSGCAFGGGTEVEIK	~20 ng/mL

Note: attention shifts to another entry.
Find the measured EC50 (read off the curve) of LA-235 (antibody, V domains shown, Rabbit monoclonal IgG; Called an antagonist antibody) VH: SSSVEESEGRLVTPGTPLTLTCTVSGFSLSSYTMGWVRQAPGEGLEWIGTTSNDGSTYYASWAKGRFTISKTSSTTVDLMMTSLTTEDTATYFCVRGTNIRSLWGPGTLVTISS VL: ELVMTQTPASVEAAVGGTVTIKCQASQSIGSNLAWYQQKPGQPPKLLIYLASALASGVSSRFKGSGSGSDFTLTISDLECADAATYYCQCTYGSSNNNNYGDPFGGGTEVEIK and report it.
~10 ng/mL
